Reported Tm values for the following sequences.
# test.description: melting temperature; fluorescence melt of hairpins on a sequencing array, two-state fit, raised by 9.35 °C to match UV melts
# test.conditions: sodium 0.088 M
endpoint: Tm (°C)

> print(dat)
                            residue.codes  endpoint  value
 1              GCGTTGCAACGC ((((....))))        Tm     59
 2      GATCACGGAGGTGATC ((((((....))))))        Tm   64.3
 3    GAAACCCGAAAGGGTTC (((.(((....))))))        Tm   51.5
 4  GGCTGGGCGAAAGCCGCC (((..(((....))))))        Tm   58.4
 5  GCTGTATCGAAAGATAGC (((..(((....))))))        Tm   33.7
 6  GGCCACGAAAGTGGCGCC ((((((....)))..)))        Tm   65.5
 7      GATCGTAAGGACGATC ((((((....))))))        Tm   53.4
 8  GGTTAAGGAAACTTAGCC ((.((((....)))).))        Tm   38.5
 9  GATAGCGGAAACGTTGTC ((.(.((....)).).))        Tm   27.5
10  GTAGGCCCGAAAGGGTAC (((..(((....))))))        Tm   32.9
11        GATCTCGATGAGATC ((((((...))))))        Tm     53
12  GTACGCCGAAAGGCTTAC (((.(((....))).)))        Tm   46.3
13  GGGTCCCGAAAGGGCCCC (((.(((....))).)))        Tm   67.2
14      GATCCATGCCTGGATC ((((((....))))))        Tm   51.6
15      GATCAACGCGTTGATC ((((((....))))))        Tm   59.5
16  GCAGCAGGAAACTGCCAC (..((((....))))..)        Tm   31.6
17  GGAGGCGAAAGCCTGTCC ((((((....)))..)))        Tm     38
18  GCCACCCCGAAAGGGGGC (((..(((....))))))        Tm   55.8
19      GATCTTACCCAAGATC ((((((....))))))        Tm   42.1
20              GCGGGCAGCCGC ((((....))))        Tm   63.5
21  GCGGACGAAAGTCATCGC ((((((....)))..)))        Tm   50.1
22  CGGGTCGGAAACGATCCG (((.(((....))).)))        Tm     58
23  GACCCAGGAAACCGGGTC (((((.(....).)))))        Tm   52.9
24  GGTTACTCGAAAGAGACC (((..(((....))))))        Tm     25
25              GCGATGTTTCGC ((((....))))        Tm   51.4
26  GGTGTCGAAAGACAAACC ((((((....)))..)))        Tm   44.4
27  GGTAAAACGAAAGTTACC (((..(((....))))))        Tm   37.3
28        GATCGACATTCGATC ((((((...))))))        Tm   49.9
29  GGATAGGGAAACCTACCC ((.((((....)))).))        Tm   35.2
30    CGTGTCGGAAACGAACG (((.(((....))))))        Tm   37.7
31  GGGCGCGAAAGCGTTCCC ((((((....)))..)))        Tm   52.3
32    GGAGGTCGAAAGACTCC (((.(((....))))))        Tm   51.1
33  GCGGAGCGAAAGCGCGGC ((.(.((....)).).))        Tm   58.6
34  GCAGACGAAAGTCCATGC ((((((....)))..)))        Tm   35.3
35      GATCCCTTAGGGGATC ((((((....))))))        Tm   61.3
36  GTGTGTGGAAACATACGC (.((.((....)).)).)        Tm     47
37  GCGCACCGAAAGGTTCGC (((.(((....))).)))        Tm   61.4
38  GCGGGGCGAAAGCTCAGC ((.(.((....)).).))        Tm   60.1
39      GATCTATGGATAGATC ((((((....))))))        Tm     43
40  GAAAGGACGAAAGTCTTC (((..(((....))))))        Tm   24.9
41  GTCAAGTCGAAAGACGAC (((..(((....))))))        Tm   41.9
42  GCGCGGCGAAAGCATCGC (((..((....))..)))        Tm   57.5
43  GCGAACGAAAGTTCTCGC ((((((....)))..)))        Tm   45.6
44  GCACGACGAAAGTCATGC (((.(((....))).)))        Tm   52.6
45      GCTCTGGAAACAGAGC ((((((....))))))        Tm   62.2
46              GCGTCTGGACGC ((((....))))        Tm   59.8
47  GTAGAACGAAAGTTATAC (((.(((....))).)))        Tm   44.1
48  GCGGTCGAAAGACCACGC ((((((....)))..)))        Tm     57
49      GATCATATCAATGATC ((((((....))))))        Tm   48.3
50          CTCGTGAAAACGAG (((((....)))))        Tm   53.5
51      GATCGTGCTCACGATC ((((((....))))))        Tm   58.9
